# EXPERIMENTAL_TARGET: GluA1o-γ8 (Homo sapiens, UniProt P42261+Q8WXS5)
# Construct: expressed in transfected cells
# Sequence (P42261+Q8WXS5 fused): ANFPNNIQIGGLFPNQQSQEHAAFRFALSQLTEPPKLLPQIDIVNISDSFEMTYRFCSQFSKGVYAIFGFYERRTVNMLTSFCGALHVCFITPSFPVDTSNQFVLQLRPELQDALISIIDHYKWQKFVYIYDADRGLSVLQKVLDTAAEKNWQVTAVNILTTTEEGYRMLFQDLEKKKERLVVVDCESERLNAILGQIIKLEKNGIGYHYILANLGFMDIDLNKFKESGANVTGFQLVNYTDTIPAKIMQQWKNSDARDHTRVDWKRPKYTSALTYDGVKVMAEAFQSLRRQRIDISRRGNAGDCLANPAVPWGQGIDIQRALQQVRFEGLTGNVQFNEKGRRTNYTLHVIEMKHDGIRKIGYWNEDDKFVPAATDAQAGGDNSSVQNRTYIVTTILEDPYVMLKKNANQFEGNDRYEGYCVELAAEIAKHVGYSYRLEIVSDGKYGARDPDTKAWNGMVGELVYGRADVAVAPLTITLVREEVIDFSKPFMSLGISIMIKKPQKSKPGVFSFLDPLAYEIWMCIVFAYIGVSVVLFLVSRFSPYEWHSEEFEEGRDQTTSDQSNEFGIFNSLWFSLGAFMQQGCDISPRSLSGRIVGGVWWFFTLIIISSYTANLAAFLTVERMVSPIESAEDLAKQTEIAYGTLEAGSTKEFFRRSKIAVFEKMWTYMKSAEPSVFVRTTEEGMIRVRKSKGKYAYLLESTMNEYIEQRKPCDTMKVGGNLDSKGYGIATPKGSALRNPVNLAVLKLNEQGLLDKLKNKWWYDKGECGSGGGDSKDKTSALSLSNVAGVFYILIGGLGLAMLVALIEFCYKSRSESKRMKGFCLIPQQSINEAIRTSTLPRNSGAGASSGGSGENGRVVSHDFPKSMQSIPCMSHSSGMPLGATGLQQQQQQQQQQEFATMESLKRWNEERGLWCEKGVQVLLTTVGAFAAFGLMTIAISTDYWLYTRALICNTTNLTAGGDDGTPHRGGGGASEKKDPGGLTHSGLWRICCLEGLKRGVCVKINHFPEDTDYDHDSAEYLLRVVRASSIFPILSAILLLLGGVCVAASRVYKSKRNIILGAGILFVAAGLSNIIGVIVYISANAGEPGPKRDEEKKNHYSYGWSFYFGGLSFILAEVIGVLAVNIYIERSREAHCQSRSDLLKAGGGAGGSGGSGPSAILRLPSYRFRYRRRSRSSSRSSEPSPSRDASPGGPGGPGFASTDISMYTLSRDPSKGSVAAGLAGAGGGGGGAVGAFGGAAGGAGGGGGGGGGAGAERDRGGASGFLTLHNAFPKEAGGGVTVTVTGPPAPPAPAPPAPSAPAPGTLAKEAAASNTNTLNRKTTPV
# ASSAY_PROTOCOL: Calcium flux assay (FLIPR), inhibition of glutamate response of GluA1o-γ8 channel in HEK293 cells
# Type: cell-based
# CONDITION_SUMMARY: HEK293 cells stably expressing GRIA1o-CACNG8 fusion; 15 μM glutamate; pIC50 = negative log of the IC50 in molar; read-out: GluR1-γ8 pIC50 (converted)
READOUT_LABEL: IC50

Problem: Input "O=C1Cc2cc(-c3c(Cl)cccc3OC(F)(F)F)cc(Cl)c2N1" , output reported IC50.
Result: 0.0794 nM

Problem: Input "Cc1cc(-c2c(F)cccc2F)cc2c1NC(=O)C2" , output reported IC50.
Result: 316 nM

Problem: Input "Cc1cccc(Cl)c1-c1cc(Cl)c2c(c1)CC(=O)N2" , output reported IC50.
Result: 0.0631 nM

Problem: Input "Cc1cc(-c2c(Cl)cnc(C(F)(F)F)c2Cl)cc2c1NC(=O)C2" , output reported IC50.
Result: 12.6 nM

Problem: Input "CCc1cc(-c2c(C)cccc2Cl)cc2c1NC(=O)C2" , output reported IC50.
Result: 0.251 nM

Problem: Input "O=C1Cc2cc(-c3c(Cl)ccnc3Cl)cc(Cl)c2N1" , output reported IC50.
Result: 1.58 nM

Problem: Input "Cc1cncc(C)c1-c1cc(F)c2c(c1)CC(=O)N2" , output reported IC50.
Result: 251 nM

Problem: Input "COc1cccc(OC(F)F)c1-c1cc(F)c2c(c1)CC(=O)N2" , output reported IC50.
Result: > 10000 nM

* * *

Consider the following compounds; for each one, report its IC50.
# EXPERIMENTAL_TARGET: GluA1o-γ8 (Homo sapiens, UniProt P42261+Q8WXS5)
# Construct: expressed in transfected cells
# ASSAY_PROTOCOL: Calcium flux assay (FLIPR), inhibition of glutamate response of GluA1o-γ8 channel in HEK293 cells
# Type: cell-based
# CONDITION_SUMMARY: HEK293 cells stably expressing GRIA1o-CACNG8 fusion; 15 μM glutamate; pIC50 = negative log of the IC50 in molar; read-out: GluR1-γ8 pIC50 (converted)
State just the number; it will be interpreted in nM.

Problem: Input "Cc1ccnc(C)c1-c1cc(Cl)c2c(c1)CC(=O)N2" , output reported IC50.
Result: 158

Problem: Input "CC(C)(C#N)c1cccc(Cl)c1-c1ccc2c(c1)CC(=O)N2" , output reported IC50.
Result: 79.4

Problem: Input "O=C1Cc2cc(-c3c(Cl)cncc3Cl)cc(F)c2N1" , output reported IC50.
Result: 316

Problem: Input "Cc1cc(-c2c(C)cccc2C#N)cc2c1NC(=O)C2" , output reported IC50.
Result: 2.51

Problem: Input "COc1nccc(C)c1-c1cc(C)c2c(c1)CC(=O)N2" , output reported IC50.
Result: 31.6

Problem: Input "O=C1Cc2cc(-c3c(Cl)cccc3Br)ccc2N1" , output reported IC50.
Result: 25.1

Problem: Input "Cc1cc(-c2c(C)cccc2F)cc2c1NC(=O)C2" , output reported IC50.
Result: 3.16

Problem: Input "COC1CCN(c2cccc(-c3ccc4c(c3)CC(=O)N4)c2Cl)CC1" , output reported IC50.
Result: 6310

Problem: Input "Cc1cccc(Cl)c1-c1ccc2c(c1)CC(=O)N2" , output reported IC50.
Result: 100

Problem: Input "Cc1cccc(C(F)(F)F)c1-c1cc(Cl)c2c(c1)CC(=O)N2" , output reported IC50.
Result: 0.316

Problem: Input "O=C1Cc2cc(-c3c(Cl)cccc3OC(F)(F)F)cc(F)c2N1" , output reported IC50.
Result: 3.16
